- Target or system: Recombinant STAT3 protein (STAT3(G127-I722)) (Homo sapiens, UniProt P40763)
- Construct: STAT3(G127-I722)
- Sequence (P40763 127-722, species assumed): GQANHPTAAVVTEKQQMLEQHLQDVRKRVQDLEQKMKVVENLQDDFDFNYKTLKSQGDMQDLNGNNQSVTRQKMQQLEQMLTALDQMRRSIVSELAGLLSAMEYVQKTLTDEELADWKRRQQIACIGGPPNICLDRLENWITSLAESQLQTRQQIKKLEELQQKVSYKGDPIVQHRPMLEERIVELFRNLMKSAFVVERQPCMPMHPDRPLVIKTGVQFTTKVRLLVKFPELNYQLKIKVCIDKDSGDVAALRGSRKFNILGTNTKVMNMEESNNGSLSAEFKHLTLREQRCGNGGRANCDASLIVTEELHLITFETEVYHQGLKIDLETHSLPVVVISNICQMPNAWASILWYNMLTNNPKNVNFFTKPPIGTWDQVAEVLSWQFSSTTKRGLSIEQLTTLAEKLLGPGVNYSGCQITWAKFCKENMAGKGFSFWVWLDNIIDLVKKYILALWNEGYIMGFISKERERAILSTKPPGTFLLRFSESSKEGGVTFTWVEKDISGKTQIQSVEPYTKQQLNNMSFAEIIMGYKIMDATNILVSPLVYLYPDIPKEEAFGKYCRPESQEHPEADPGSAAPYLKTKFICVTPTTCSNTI
- Assay procedure: STAT3 Fluorescence Polarization (FP) Assay
- Experimental parameters: STAT3(G127-I722) 25 nM, probe 5-FAM-GpYLPQTV-NH2 2 nM, 45-minute incubation
pIC50: −log10 of the molar value.
Each record here notes measured pIC50.

# Compound, pIC50
records = [
    ("O=C(N[C@H]1C[C@H]2C[C@H]2C[C@H]2CC[C@@H](C(=O)N3CC(c4cccnc4)C3)N2C1=O)c1cc2cc([C@H](F)P(=O)(O)O)ccc2s1", "> 7.00"),
    ("O=C(N[C@H]1C[C@@H]2C[C@@H]2C[C@H]2CC[C@@H](C(=O)N3CC(c4cnccn4)C3)N2C1=O)c1cc2cc(C(F)(F)P(=O)(O)O)ccc2s1", "> 7.00"),
    ("C[C@H]1COCCN1C(=O)C1CN(C(=O)[C@@H]2CC[C@@H]3C[C@H]4C[C@H]4C[C@H](NC(=O)c4cc5cc(C(F)(F)P(=O)(O)O)ccc5s4)C(=O)N32)C1", "> 7.00"),
    ("O=C(N[C@H]1C[C@@H]2C[C@@H]2C[C@H]2CC[C@@H](C(=O)N3CCC4C3CN4c3cccnc3)N2C1=O)c1cc2cc(C(F)(F)P(=O)(O)O)ccc2s1 (stereo partly shown)", "> 7.00"),
    ("O=C(N[C@H]1C[C@@H]2C[C@@H]2C[C@H]2CC[C@@H](C(=O)N3CCC4C3CN4c3cccnc3)N2C1=O)c1cc2cc(CP(=O)(O)O)ccc2s1 (stereo partly shown)", "6.00 to 7.00"),
    ("O=C(N[C@H]1C[C@@H]2C[C@@H]2C[C@H]2CC[C@@H](C(=O)N3CC(c4ccon4)C3)N2C1=O)c1cc2cc(C(F)P(=O)(O)O)ccc2s1 (stereo partly shown)", "> 7.00"),
    ("N#Cc1ccc(C2CN(C(=O)[C@@H]3CC[C@@H]4C[C@@H]5C[C@@H]5C[C@H](NC(=O)c5cc6cc(C(F)(F)P(=O)(O)O)ccc6s5)C(=O)N43)C2)cc1", "> 7.00"),
    ("COC1(c2nccn2C)CN(C(=O)[C@@H]2CC[C@@H]3C[C@@H]4[C@H](C[C@H](NC(=O)c5cc6cc(C(F)(F)P(=O)(O)O)ccc6s5)C(=O)N32)C4(F)F)C1", "6.00 to 7.00"),
    ("CN(C)c1ccncc1[C@@H]1CN(C(=O)[C@@H]2CC[C@@H]3C[C@H]4C[C@H]4C[C@H](NC(=O)c4cc5cc([C@H](F)P(=O)(O)O)ccc5s4)C(=O)N32)C2(CC2)C1 (single isomer, unassigned)", "> 7.00"),
]

Could you now look at the following compound, please?
[ask] Would you kindly share the measured pIC50 for O=C(N[C@H]1C[C@@H]2C[C@@H]2C[C@H]2CC[C@@H](C(=O)N3CC(c4cccnc4)C3)N2C1=O)c1cc2cc(C(F)(F)P(=O)(O)O)ccc2s1 [Compound 100] ?
[reply] > 7.00

Hello, the source for this data is patent US20250215030A1, in case you need it.
